Source: the supplement of paper PMC7877785

Reported self-splicing fitness (ln) by item:
# EXPERIMENT_SUMMARY: self-splicing fitness, log relative to wild type (ln ratio); higher = more splicing; Tetrahymena group I intron in knt gene, E. coli kanamycin selection, DiMSum; sequences stand for … in CUCUCU…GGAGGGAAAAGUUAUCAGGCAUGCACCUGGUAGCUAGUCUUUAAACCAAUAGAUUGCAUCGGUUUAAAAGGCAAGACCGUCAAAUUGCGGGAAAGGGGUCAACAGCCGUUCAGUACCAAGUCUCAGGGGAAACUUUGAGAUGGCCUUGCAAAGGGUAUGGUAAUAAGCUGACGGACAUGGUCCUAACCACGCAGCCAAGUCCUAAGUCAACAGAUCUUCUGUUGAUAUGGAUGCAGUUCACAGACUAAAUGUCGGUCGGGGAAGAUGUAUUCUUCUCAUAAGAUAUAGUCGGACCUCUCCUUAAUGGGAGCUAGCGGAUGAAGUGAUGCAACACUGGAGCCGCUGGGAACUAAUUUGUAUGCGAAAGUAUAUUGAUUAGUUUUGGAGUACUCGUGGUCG;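 also: selection with 25 µg/mL kanamycin versus none on LB agar overnight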
# PARTICULARS: 30 °C

CGUCAGCAAUAUUACGUCUC | -2.87

Exercise: Could you tell me which self-splicing fitness (ln) is on file for `AACGAGCAAUAUUACGAUCG` ?
Solution: -1.19
